- measured_on: Serine/threonine-protein kinase Chk1 (Homo sapiens, UniProt O14757)
- Sequence (O14757 whole entry): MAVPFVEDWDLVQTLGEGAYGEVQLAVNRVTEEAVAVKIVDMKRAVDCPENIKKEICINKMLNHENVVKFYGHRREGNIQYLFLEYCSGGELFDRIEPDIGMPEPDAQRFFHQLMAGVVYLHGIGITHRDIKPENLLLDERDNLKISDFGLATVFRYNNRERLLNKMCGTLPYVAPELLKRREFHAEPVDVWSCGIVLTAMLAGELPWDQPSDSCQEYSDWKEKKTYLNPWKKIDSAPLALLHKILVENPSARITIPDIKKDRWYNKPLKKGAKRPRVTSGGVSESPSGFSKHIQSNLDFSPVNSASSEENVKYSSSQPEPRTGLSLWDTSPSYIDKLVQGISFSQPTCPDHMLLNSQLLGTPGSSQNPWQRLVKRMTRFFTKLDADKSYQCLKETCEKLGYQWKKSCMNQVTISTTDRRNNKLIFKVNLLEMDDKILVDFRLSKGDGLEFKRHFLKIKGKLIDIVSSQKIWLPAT
- assay_explanation: Inhibition of human Chk1 in H1299 cells assessed as blockade of Cdc25A degradation
measurement_type: EC50 (µM)
I only need the number, in µM, no unit after it.

Take a look at these entries with their results.
COc1cc2c(cc1OCCCN)Nc1cc(-c3ccc([N+](=O)[O-])c(OC)c3)ccc1C(=O)N2 | 2.6
COc1cc2c(cc1CCC(C)(C)O)Nc1cc(-c3ccc([N+](=O)[O-])c(OC)c3)ccc1C(=O)N2 | 0.6
COc1cc2c(cc1CCCO)NC(=O)c1ccc(-c3ccc([N+](=O)[O-])c(OC)c3)cc1N2 | 0.22

Reported EC50, molecule COc1cc2c(cc1CCC(=O)N(C)C)Nc1cc(-c3ccc([N+](=O)[O-])c(OC)c3)ccc1C(=O)N2 : ____ 0.05

How about COc1cc2c(cc1OCCN1CCOCC1)Nc1cc(-c3ccc([N+](=O)[O-])c(OC)c3)ccc1C(=O)N2 ? 0.2

How about COCCOCCOc1cc2c(cc1OC)NC(=O)c1ccc(-c3ccc([N+](=O)[O-])c(OC)c3)cc1N2 ? 3.1

How about COc1cc2c(cc1CC(C)(C)O)Nc1cc(-c3ccc([N+](=O)[O-])c(OC)c3)ccc1C(=O)N2 ? 0.04
